Tested on: MS2 coat protein
Test: apparent KD of MS2 coat protein; designed switch direction (-1 OFF switch, 1 ON switch): -1; higher = weaker reporter binding
Conditions: Eterna round: R95; input ligand: microRNA oligo, concentration not stated
parameterMeasured: apparent KD of MS2 coat protein (nM)
Answers are plain numbers, in nM.

sequenceRecord	target	experimentalValue
GAGGAACAUGAGGAUCACCCAUGUGAGGAUAUGCAUAGUGAGCUAGUAGACGUUUAUUGCAGAAGGUACACUGA [JR_Exclu1_Sub080] (puzzle: Exclusion 1)	MS2 coat protein	25.3
ACUAGAUGAGGAUAUGCAUAUUUUCGUGUUCUUCUAGAUUAACAUGAGGAUCACCCAUGUAGAAGGCGUCAAUA [Exclusion 2 - 15] (puzzle: Exclusion 2)	MS2 coat protein	15.4
GUGCGGUGAGGAUAUACGUAGGUGAAAAUCUGUGUGUUCCUACAUGAGGAUCACCCAUGUAGAAGGCAUGUCAC [LRO-Excl2-14] (puzzle: Exclusion 2)	MS2 coat protein	47.6
GUAGCUUCGGCUACUACAAGCUUUUUGCUCGUCUUAUUAACAUGAGGAUCACCCAUGUCAAAGAGACCUCAUGUAUU [Sensor v3 - turn-off variant 2 - 5] (puzzle: Sensor v3, turn-off variant 2)	MS2 coat protein	28.2

Next sequence, please.
Q: Provide value of apparent KD of MS2 coat protein for this record tested with MS2 coat protein: AAGUAUAGAGGAUAUAGUAGUUACAACAUGAGGAUCACCCAUGUUCUUCAUAACGUAGAUCUAGAAGGCUGAUAAA [EX-5 Malc#29] (puzzle: Exclusion 5)
A: 114
